Molecular target: human cannabinoid receptor 1 (huCB1), full length, expressed on cells (human, UniProt P21554 1-472)
Sequence (P21554 whole entry): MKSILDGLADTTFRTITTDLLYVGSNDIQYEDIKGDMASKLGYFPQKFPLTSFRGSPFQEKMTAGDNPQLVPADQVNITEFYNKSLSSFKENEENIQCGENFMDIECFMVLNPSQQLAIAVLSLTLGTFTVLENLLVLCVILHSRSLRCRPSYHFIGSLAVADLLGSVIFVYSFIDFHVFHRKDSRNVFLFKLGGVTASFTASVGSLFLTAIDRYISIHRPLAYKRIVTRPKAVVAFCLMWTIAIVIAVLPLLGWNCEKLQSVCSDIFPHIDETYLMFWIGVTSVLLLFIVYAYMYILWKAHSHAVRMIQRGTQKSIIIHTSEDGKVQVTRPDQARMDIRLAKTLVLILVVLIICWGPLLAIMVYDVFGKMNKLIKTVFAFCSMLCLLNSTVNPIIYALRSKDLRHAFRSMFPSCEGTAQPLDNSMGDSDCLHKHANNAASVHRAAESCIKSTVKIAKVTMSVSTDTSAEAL
Experiment: cell-based or functional assay
Exercise: for every item that follows, state its recorded n = 1 IC50, -fold vs Rimo.
Respond numerically; units are fold vs Rimonabant and should not be typed.

// recorded n = 1 IC50, -fold vs Rimo for LIBC527919-1 (antibody, V domains shown, Expressed as IgG1 SEFL2 mAb) VH: QVQLQESGPGLVKPSQTLSLTCTVSGGSIRRGGDYWAWIRQHPGKGLEWIGHVYQTGSTAYNPNFKDRATISVNTYKNQFSLKLSSVTAADTAVYYCARNYDALSGYSYYYYGMDVWGQGTTVTVSS VL: DIQLTQSPSSLSASVGDRVTITCRASQSIISYLNWYQQKPGKAPKLLIYAASSLRSGVPSRFSGSGSGTDFTLTISSLQPEDFATYYCQQYSNYPLTFGGGTRVEIKR : 1.21

// recorded n = 1 IC50, -fold vs Rimo for LIBC523857-1 (antibody, V domains shown) VH: QVQLQESGPGLVKPSQTLSLTCTVSGGSIRRGGDYWSWIRQHPGKGLEWIGHIYQTGQTAYNPRLEGRATISVNTYKNQFSLKLSSVTAADTAVYYCARDYDILTGYSYYYYGMDVWGQGTTVTVSS VL: DIVMTQSPLSLPVTPGEPASISCRSSQSLLSSTGANYLDWYLQKPGQSPQLLIYLGSNRASGVPDRFSGSGSGTDFTLKISRVEAEDVGVYYCRQAVELPRTFGQGTKVEIKR : 3.18

// recorded n = 1 IC50, -fold vs Rimo for LIBC523661-1 (antibody, V domains shown, Expressed as IgG1 SEFL2 mAb) VH: QVQLQESGPGLVKPSQTLSLTCTVSGGSIRRGGDYWSWIRQHPGKGLEWIGHIYYEGSTKYNPSFKGRATISVNTYKNQFSLKLSSVTAADTAVYYCARDYDPVTGHSYYYYGMDVWGQGTTVTVSS VL: DIVMTQSPLSLPVTPGEPASISCRSSQSLLTSSGYNYVDWYLQKPGQSPQLLIYQGSNRASGVPDRFSGSGSGTDFTLKISRVEAEDVGVYYCRQARAIPRTFGQGTKVEIKR : 1.24
